# Tested on: Prothrombin time (blood clotting)
# Procedure details: Prothrombin time ED50 (3 days after intraperitoneal injection)
# Type: in vivo, rat (male Wistar strain)
# Measurement setup: Rattus norvegicus, S100, ip, 72 h; male Wistar rats 200-250 g, single intraperitoneal injection, blood taken three days after injection; ED50 = 50% extension of prothrombin time (0% = 12 s, 100% = 212 s); read-out: 3-day ED50 (Prothrombin time ED50)
Here, each record is paired with measured ED50 data.

// field: ED50; key: O=c1oc2ccccc2c(O)c1C1CC(c2ccc(-c3ccc(Br)cc3)o2)Cc2ccccc21 (stereo not drawn) ; value = 0.78 mg/kg

Next:
// field: ED50; key: O=c1oc2ccccc2c(O)c1C1CC(c2ccc(/C=C/c3ccc(Br)cc3)cc2)Cc2ccccc21 (stereo not drawn) ; value = 0.8 mg/kg

// field: ED50; key: N#Cc1ccc(COc2ccc(C3Cc4ccccc4C(c4c(O)c5ccccc5oc4=O)C3)cc2)cc1 (stereo not drawn) ; value = 0.8 mg/kg

// field: ED50; key: O=c1oc2ccccc2c(O)c1C1CC(c2ccc(/C=C/c3ccccc3)cc2)Cc2ccccc21 (stereo not drawn) ; value = 0.8 mg/kg

// field: ED50; key: N#Cc1ccc(Oc2ccc(C3Cc4ccccc4C(c4c(O)c5ccccc5oc4=O)C3)cc2)cc1 (stereo not drawn) ; value = 0.41 mg/kg

// field: ED50; key: O=c1oc2ccccc2c(O)c1C1CC(c2ccc([N+](=O)[O-])cc2)Cc2ccccc21 (stereo not drawn) ; value = 0.8 mg/kg
